Kindly state k H (closed) /k H (open) for each of the entries shown.
# TARGET UNDER TEST: UniProtKB P00760
*1 amine or outer side, *2 acyl side, *3 side chain or, on linkers, in order; H or OH if unused. Where a SMILES comes first, the peptide text is derived from it. Bridges are numbered along the chain shown (N, C = ends). Triazole bridges read from a SMILES are 1,4-linked. [ ]: non-standard residue; d: D form. X1 = Cc1sc(C(=O)[C@@H]2CCCN2[*:2])cc1C1=C(c2cc(C(=O)[*:1])sc2C)CCC1; Orn(N3) = [N-]=[N+]=NCCC[C@H](N)C(=O)O; Aha = [N-]=[N+]=NCC[C@H](N)C(=O)O; hCys = N[C@@H](CCS)C(=O)O; Pra = C#CC[C@H](N)C(=O)O
No unit in the answer, only the number.

Provide measured k H (closed) /k H (open) value, entry: CC[C@H](C)[C@@H]1NC(=O)[C@@H]2CCCN2C(=O)[C@@H]2CCCN2C(=O)[C@H]([C@@H](C)CC)NC(=O)[C@H](CO)NC(=O)[C@H](CCCCN)NC(=O)[C@H]([C@@H](C)O)NC(=O)[C@@H]2CSSC[C@H](NC1=O)C(=O)N[C@@H](CCCNC(=N)N)C(=O)N[C@@H](CC(C)C)C(=O)N1CCC[C@H]1C(=O)c1cc(c(C)s1)C1=C(CCC1)c1cc(sc1C)C(=O)N[C@@H](C(C)C)C(=O)N[C@@H](Cc1ccccc1)C(=O)N2 [Peptide S10i] (VFCTKSIPPICRL; disulfide 3-11; linker N-C via X1)
4.2

Provide measured k H (closed) /k H (open) value, entry: CC[C@H](C)[C@@H]1NC(=O)[C@@H]2CCCN2C(=O)[C@@H]2CCCN2C(=O)[C@H]([C@@H](C)CC)NC(=O)[C@H](CO)NC(=O)[C@H](CCCCN)NC(=O)[C@H]([C@@H](C)O)NC(=O)[C@@H]2CSSCC[C@H](NC1=O)C(=O)N[C@@H](CCCNC(=N)N)C(=O)N1CCC[C@H]1C(=O)c1cc(c(C)s1)C1=C(CCC1)c1cc(sc1C)C(=O)N[C@@H](Cc1ccccc1)C(=O)N2 [Peptide S5i] (FCTKSIPPI[hCys]R; disulfide 2-10; linker N-C via X1)
1.7

Provide measured k H (closed) /k H (open) value, entry: CC[C@H](C)[C@@H]1NC(=O)[C@@H]2CCCN2C(=O)[C@@H]2CCCN2C(=O)[C@H]([C@@H](C)CC)NC(=O)[C@H](CO)NC(=O)[C@H](CCCCN)NC(=O)[C@H]([C@@H](C)O)NC(=O)[C@@H]2Cc3cn(nn3)CCC[C@H](NC1=O)C(=O)N[C@@H](Cc1ccccc1)C(=O)N1CCC[C@H]1C(=O)c1cc(c(C)s1)C1=C(CCC1)c1cc(sc1C)C(=O)N[C@@H](CCCNC(=N)N)C(=O)N2 [Peptide S7n] (R[Pra]TKSIPPI[Orn(N3)]F; triazole 2-10; linker N-C via X1)
30.5

Provide measured k H (closed) /k H (open) value, entry: CC[C@H](C)[C@@H]1NC(=O)[C@@H]2CCCN2C(=O)[C@@H]2CCCN2C(=O)[C@H]([C@@H](C)CC)NC(=O)[C@H](CO)NC(=O)[C@H](CCCCN)NC(=O)[C@H]([C@@H](C)O)NC(=O)[C@@H]2Cc3cn(nn3)CC[C@H](NC1=O)C(=O)N[C@@H](CCCNC(=N)N)C(=O)N1CCC[C@H]1C(=O)c1cc(c(C)s1)C1=C(CCC1)c1cc(sc1C)C(=O)N[C@@H](Cc1ccccc1)C(=O)N2 [Peptide S6i] (F[Pra]TKSIPPI[Aha]R; triazole 2-10; linker N-C via X1)
5.8

Provide measured k H (closed) /k H (open) value, entry: CC[C@H](C)[C@@H]1NC(=O)[C@@H]2CCCN2C(=O)[C@@H]2CCCN2C(=O)[C@H]([C@@H](C)CC)NC(=O)[C@H](CO)NC(=O)[C@H](CCCCN)NC(=O)[C@H]([C@@H](C)O)NC(=O)[C@@H]2Cc3cn(nn3)CC[C@H](NC1=O)C(=O)N[C@@H](CCCNC(=N)N)C(=O)N[C@@H](CC(C)C)C(=O)N1CCC[C@H]1C(=O)c1cc(c(C)s1)C1=C(CCC1)c1cc(sc1C)C(=O)N[C@@H](C(C)C)C(=O)N[C@@H](Cc1ccccc1)C(=O)N2 [Peptide S11i] (VF[Pra]TKSIPPI[Aha]RL; triazole 3-11; linker N-C via X1)
3.3

* * *

Kindly state Ki for each of the entries shown.
# TARGET UNDER TEST: T1, Bos taurus trypsin 1 (T1) (Bos taurus, UniProt P00760)
# T1 sequence (P00760 24-246): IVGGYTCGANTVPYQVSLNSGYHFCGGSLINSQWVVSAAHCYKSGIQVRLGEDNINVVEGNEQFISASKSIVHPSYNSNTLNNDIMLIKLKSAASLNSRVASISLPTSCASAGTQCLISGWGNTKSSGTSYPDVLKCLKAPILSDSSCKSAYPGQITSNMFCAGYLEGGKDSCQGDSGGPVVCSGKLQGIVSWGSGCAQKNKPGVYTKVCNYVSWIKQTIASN
# ASSAY SUMMARY: Trypsin inhibition, Ki by Lineweaver-Burk analysis;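 further: trypsin activity followed by spectrophotometric hydrolysis kinetics of the chromogenic substrate BAPNA in Tris buffer, Ki obtained from double-reciprocal Lineweaver–Burk plots at several substrate concentrations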
# ASSAY CONTEXT: K i [nM] (closed)
*1 amine or outer side, *2 acyl side, *3 side chain or, on linkers, in order; H or OH if unused. Where a SMILES comes first, the peptide text is derived from it. Bridges are numbered along the chain shown (N, C = ends). [ ]: non-standard residue; d: D form. X1 = Cc1sc(C(=O)[C@@H]2CCCN2[*:2])cc1C1=C(c2cc(C(=O)[*:1])sc2C)CCC1; hCys = N[C@@H](CCS)C(=O)O
Value expressed in nM; do not type the unit.

Provide measured Ki value, entry: CC[C@H](C)[C@@H]1NC(=O)[C@@H]2CCCN2C(=O)[C@@H]2CCCN2C(=O)[C@H]([C@@H](C)CC)NC(=O)[C@H](CO)NC(=O)[C@H](CCCCN)NC(=O)[C@H]([C@@H](C)O)NC(=O)[C@@H]2CSSC[C@H](NC1=O)C(=O)N[C@@H](Cc1ccccc1)C(=O)N[C@@H](CC(C)C)C(=O)N1CCC[C@H]1C(=O)c1cc(c(C)s1)C1=C(CCC1)c1cc(sc1C)C(=O)N[C@@H](C(C)C)C(=O)N[C@@H](CCCNC(=N)N)C(=O)N2 [Peptide S10n] (VRCTKSIPPICFL; disulfide 3-11; linker N-C via X1)
181

Provide measured Ki value, entry: CC[C@H](C)[C@@H]1NC(=O)[C@@H]2CCCN2C(=O)[C@@H]2CCCN2C(=O)[C@H]([C@@H](C)CC)NC(=O)[C@H](CO)NC(=O)[C@H](CCCCN)NC(=O)[C@H]([C@@H](C)O)NC(=O)[C@@H]2CSSCC[C@H](NC1=O)C(=O)N[C@@H](Cc1ccccc1)C(=O)N1CCC[C@H]1C(=O)c1cc(c(C)s1)C1=C(CCC1)c1cc(sc1C)C(=O)N[C@@H](CCCNC(=N)N)C(=O)N2 [Peptide S5n] (RCTKSIPPI[hCys]F; disulfide 2-10; linker N-C via X1)
231

* * *

# TARGET UNDER TEST: trypsin (Bos taurus)
# Sequence (P00760 24-246): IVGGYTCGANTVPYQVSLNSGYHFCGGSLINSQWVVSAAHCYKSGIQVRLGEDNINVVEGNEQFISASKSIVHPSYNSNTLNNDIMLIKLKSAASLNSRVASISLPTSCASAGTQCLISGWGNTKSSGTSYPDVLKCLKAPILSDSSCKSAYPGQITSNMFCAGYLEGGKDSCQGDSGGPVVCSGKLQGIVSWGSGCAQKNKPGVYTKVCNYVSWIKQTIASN
# ASSAY CONTEXT: pH 8.2
*1 amine or outer side, *2 acyl side, *3 side chain or, on linkers, in order; H or OH if unused. Where a SMILES comes first, the peptide text is derived from it. Bridges are numbered along the chain shown (N, C = ends). Triazole bridges read from a SMILES are 1,4-linked. [ ]: non-standard residue; d: D form. X1 = Cc1sc(C(=O)[C@@H]2CCCN2[*:2])cc1C1=C(c2cc(C(=O)[*:1])sc2C)CCC1; Orn(N3) = [N-]=[N+]=NCCC[C@H](N)C(=O)O; Aha = [N-]=[N+]=NCC[C@H](N)C(=O)O; hCys = N[C@@H](CCS)C(=O)O; Pra = C#CC[C@H](N)C(=O)O
MEASUREMENT TYPE: k H [M^−1 s^−1] (closed)

Provide measured k H [M^−1 s^−1] (closed) value, entry: CC[C@H](C)[C@@H]1NC(=O)[C@@H]2CCCN2C(=O)[C@@H]2CCCN2C(=O)[C@H]([C@@H](C)CC)NC(=O)[C@H](CO)NC(=O)[C@H](CCCCN)NC(=O)[C@H]([C@@H](C)O)NC(=O)[C@@H]2CSSC[C@H](NC1=O)C(=O)N[C@@H](CCCNC(=N)N)C(=O)N[C@@H](CC(C)C)C(=O)N1CCC[C@H]1C(=O)c1cc(c(C)s1)C1=C(CCC1)c1cc(sc1C)C(=O)N[C@@H](C(C)C)C(=O)N[C@@H](Cc1ccccc1)C(=O)N2 [Peptide S10i] (VFCTKSIPPICRL; disulfide 3-11; linker N-C via X1)
2.2±0.3×10^−4 M^−1 s^−1

Provide measured k H [M^−1 s^−1] (closed) value, entry: CC[C@H](C)[C@@H]1NC(=O)[C@@H]2CCCN2C(=O)[C@@H]2CCCN2C(=O)[C@H]([C@@H](C)CC)NC(=O)[C@H](CO)NC(=O)[C@H](CCCCN)NC(=O)[C@H]([C@@H](C)O)NC(=O)[C@@H]2CSSCC[C@H](NC1=O)C(=O)N[C@@H](Cc1ccccc1)C(=O)N1CCC[C@H]1C(=O)c1cc(c(C)s1)C1=C(CCC1)c1cc(sc1C)C(=O)N[C@@H](CCCNC(=N)N)C(=O)N2 [Peptide S5n] (RCTKSIPPI[hCys]F; disulfide 2-10; linker N-C via X1)
3.4±0.5×10^−2 M^−1 s^−1

Provide measured k H [M^−1 s^−1] (closed) value, entry: CC[C@H](C)[C@@H]1NC(=O)[C@@H]2CCCN2C(=O)[C@@H]2CCCN2C(=O)[C@H]([C@@H](C)CC)NC(=O)[C@H](CO)NC(=O)[C@H](CCCCN)NC(=O)[C@H]([C@@H](C)O)NC(=O)[C@@H]2Cc3cn(nn3)CCC[C@H](NC1=O)C(=O)N[C@@H](Cc1ccccc1)C(=O)N1CCC[C@H]1C(=O)c1cc(c(C)s1)C1=C(CCC1)c1cc(sc1C)C(=O)N[C@@H](CCCNC(=N)N)C(=O)N2 [Peptide S7n] (R[Pra]TKSIPPI[Orn(N3)]F; triazole 2-10; linker N-C via X1)
6.1±1.2×10^−2 M^−1 s^−1

Provide measured k H [M^−1 s^−1] (closed) value, entry: CC[C@H](C)[C@@H]1NC(=O)[C@@H]2CCCN2C(=O)[C@@H]2CCCN2C(=O)[C@H]([C@@H](C)CC)NC(=O)[C@H](CO)NC(=O)[C@H](CCCCN)NC(=O)[C@H]([C@@H](C)O)NC(=O)[C@@H]2Cc3cn(nn3)CCC[C@H](NC1=O)C(=O)N[C@@H](CCCNC(=N)N)C(=O)N[C@@H](CC(C)C)C(=O)N1CCC[C@H]1C(=O)c1cc(c(C)s1)C1=C(CCC1)c1cc(sc1C)C(=O)N[C@@H](C(C)C)C(=O)N[C@@H](Cc1ccccc1)C(=O)N2 [Peptide S12i] (VF[Pra]TKSIPPI[Orn(N3)]RL; triazole 3-11; linker N-C via X1)
4.2±0.4×10^−2 M^−1 s^−1

Provide measured k H [M^−1 s^−1] (closed) value, entry: CC[C@H](C)[C@@H]1NC(=O)[C@@H]2CCCN2C(=O)[C@@H]2CCCN2C(=O)[C@H]([C@@H](C)CC)NC(=O)[C@H](CO)NC(=O)[C@H](CCCCN)NC(=O)[C@H]([C@@H](C)O)NC(=O)[C@@H]2CSSCC[C@H](NC1=O)C(=O)N[C@@H](CCCNC(=N)N)C(=O)N1CCC[C@H]1C(=O)c1cc(c(C)s1)C1=C(CCC1)c1cc(sc1C)C(=O)N[C@@H](Cc1ccccc1)C(=O)N2 [Peptide S5i] (FCTKSIPPI[hCys]R; disulfide 2-10; linker N-C via X1)
5.0±0.8×10^−3 M^−1 s^−1

Provide measured k H [M^−1 s^−1] (closed) value, entry: CC[C@H](C)[C@@H]1NC(=O)[C@@H]2CCCN2C(=O)[C@@H]2CCCN2C(=O)[C@H]([C@@H](C)CC)NC(=O)[C@H](CO)NC(=O)[C@H](CCCCN)NC(=O)[C@H]([C@@H](C)O)NC(=O)[C@@H]2Cc3cn(nn3)CC[C@H](NC1=O)C(=O)N[C@@H](CCCNC(=N)N)C(=O)N[C@@H](CC(C)C)C(=O)N1CCC[C@H]1C(=O)c1cc(c(C)s1)C1=C(CCC1)c1cc(sc1C)C(=O)N[C@@H](C(C)C)C(=O)N[C@@H](Cc1ccccc1)C(=O)N2 [Peptide S11i] (VF[Pra]TKSIPPI[Aha]RL; triazole 3-11; linker N-C via X1)
9.1±1×10^−2 M^−1 s^−1

Provide measured k H [M^−1 s^−1] (closed) value, entry: CC[C@H](C)[C@@H]1NC(=O)[C@@H]2CCCN2C(=O)[C@@H]2CCCN2C(=O)[C@H]([C@@H](C)CC)NC(=O)[C@H](CO)NC(=O)[C@H](CCCCN)NC(=O)[C@H]([C@@H](C)O)NC(=O)[C@@H]2Cc3cn(nn3)CC[C@H](NC1=O)C(=O)N[C@@H](CCCNC(=N)N)C(=O)N1CCC[C@H]1C(=O)c1cc(c(C)s1)C1=C(CCC1)c1cc(sc1C)C(=O)N[C@@H](Cc1ccccc1)C(=O)N2 [Peptide S6i] (F[Pra]TKSIPPI[Aha]R; triazole 2-10; linker N-C via X1)
1.1±0.2×10^−1 M^−1 s^−1

Provide measured k H [M^−1 s^−1] (closed) value, entry: CC[C@H](C)[C@@H]1NC(=O)[C@@H]2CCCN2C(=O)[C@@H]2CCCN2C(=O)[C@H]([C@@H](C)CC)NC(=O)[C@H](CO)NC(=O)[C@H](CCCCN)NC(=O)[C@H]([C@@H](C)O)NC(=O)[C@@H]2Cc3cn(nn3)CC[C@H](NC1=O)C(=O)N[C@@H](Cc1ccccc1)C(=O)N1CCC[C@H]1C(=O)c1cc(c(C)s1)C1=C(CCC1)c1cc(sc1C)C(=O)N[C@@H](CCCNC(=N)N)C(=O)N2 [Peptide S6n] (R[Pra]TKSIPPI[Aha]F; triazole 2-10; linker N-C via X1)
2.5±0.8×10^−2 M^−1 s^−1
